- System: 994946-033-R-J1-PDC complex spheroid viability
- METHOD: Anticancer human tumor 994946-033-R-J1-PDC patient-derived melanoma cell line growth inhibition [POLQ]
- PROTOCOL_CONDITIONS: second compound 10 µM; first compound 10 µM; active compounds read low
RECORDED_ENDPOINT: viability, T/C (%)
Express it in %; write the number only.

>  <COMPOUND>
Nc1ccn(C2OC(CO)C(O)C2(F)F)c(=O)n1 (stereo not given) + Cc1cccc(N(C)C(=O)C2C(O)CCN2c2nc(C)cc(C(F)(F)F)c2C#N)c1

>  <RECORDED_ENDPOINT>
viability, T/C

>  <ENDPOINT_VALUE>
1.86

$$$$
>  <COMPOUND>
CCc1cc2c(N3CCc4c(cc(Cn5ccnc5)cc4-c4cn(C)nc4C(F)(F)F)C3=O)cc(C)nc2c(OC)n1 + COC1C(OC(N)=O)C(O)C(Oc2ccc3c(O)c(NC(=O)c4ccc(O)c(CC=C(C)C)c4)c(=O)oc3c2C)OC1(C)C

>  <RECORDED_ENDPOINT>
viability, T/C

>  <ENDPOINT_VALUE>
69.9

$$$$
>  <COMPOUND>
CNCc1ccc(-c2[nH]c3cc(F)cc4c3c2CCNC4=O)cc1 + COC1C(OC(N)=O)C(O)C(Oc2ccc3c(O)c(NC(=O)c4ccc(O)c(CC=C(C)C)c4)c(=O)oc3c2C)OC1(C)C

>  <RECORDED_ENDPOINT>
viability, T/C

>  <ENDPOINT_VALUE>
64.8

$$$$
>  <COMPOUND>
COc1ccc([C@@H](O)c2cc(-c3ncnc4cc(N5CCOCC5)ccc34)c(F)cc2Cl)nn1 + Cc1cccc(N(C)C(=O)C2C(O)CCN2c2nc(C)cc(C(F)(F)F)c2C#N)c1

>  <RECORDED_ENDPOINT>
viability, T/C

>  <ENDPOINT_VALUE>
41.1

$$$$

Continue with the next compound.
input: Please give the measured viability, T/C for this compound: CCc1cc2c(N3CCc4c(cc(Cn5ccnc5)cc4-c4cn(C)nc4C(F)(F)F)C3=O)ccnc2c(OC)n1 + Cc1cccc(N(C)C(=O)C2C(O)CCN2c2nc(C)cc(C(F)(F)F)c2C#N)c1
output: 65.9

* * *

As shown below, each of these molecules has a reported viability, T/C value.
- Test system: 994946-033-R-J1-PDC complex spheroid viability
- METHOD: Anticancer human tumor 994946-033-R-J1-PDC cell line growth inhibition [POLQ];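 further: spheroids exposed to drugs for 7 days; 100% = DMSO vehicle treated spheroids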
- PROTOCOL_CONDITIONS: second compound 0.316 µM; first compound 0.1 µM; active compounds read low
Express it in %; write the number only.

// known answers, use as guide
>  <MOLECULE>
CC(C)n1c(=O)n(C)c2cnc3cc(F)c(-c4ccc(OCCCN5CCCCC5)nc4)cc3c21 + Cc1cccc(N(C)C(=O)C2C(O)CCN2c2nc(C)cc(C(F)(F)F)c2C#N)c1

>  <UNIT_SYMBOL>
%

>  <viability, T/C>
117

$$$$
>  <MOLECULE>
CC1COCCN1c1cc(-c2ccnn2C)c2ccnc(-c3ccn[nH]3)c2n1 (stereo unspecified) + Nc1ccc(C#CCN(C(=O)Cc2ncc(C(F)(F)F)cc2C(F)(F)F)c2ccc(F)cc2)nn1

>  <UNIT_SYMBOL>
%

>  <viability, T/C>
40.5

$$$$
>  <MOLECULE>
CC1COCCN1c1cc(-c2ccnn2C)c2ccnc(-c3ccn[nH]3)c2n1 (stereo unspecified) + Cc1cccc(N(C)C(=O)C2C(O)CCN2c2nc(C)cc(C(F)(F)F)c2C#N)c1

>  <UNIT_SYMBOL>
%

>  <viability, T/C>
18.6

$$$$

input: Please give the measured viability, T/C for this molecule: CCCS(=O)(=O)Nc1ccc(F)c(C(=O)c2c[nH]c3ncc(-c4ccc(Cl)cc4)cc23)c1F + Nc1ccc(C#CCN(C(=O)Cc2ncc(C(F)(F)F)cc2C(F)(F)F)c2ccc(F)cc2)nn1
output: 98.9

input: Please give the measured viability, T/C for this molecule: CCCS(=O)(=O)Nc1ccc(F)c(C(=O)c2c[nH]c3ncc(-c4ccc(Cl)cc4)cc23)c1F + COC1C(OC(N)=O)C(O)C(Oc2ccc3c(O)c(NC(=O)c4ccc(O)c(CC=C(C)C)c4)c(=O)oc3c2C)OC1(C)C
output: 101

input: Please give the measured viability, T/C for this molecule: COc1cccc(OCCCN)c1-c1cc(Nc2cnc(C#N)cn2)n[nH]1 + Cc1cccc(N(C)C(=O)C2C(O)CCN2c2nc(C)cc(C(F)(F)F)c2C#N)c1
output: 20.1

input: Please give the measured viability, T/C for this molecule: CC(C)n1c(=O)n(C)c2cnc3cc(F)c(-c4ccc(OCCCN5CCCCC5)nc4)cc3c21 + COC1C(OC(N)=O)C(O)C(Oc2ccc3c(O)c(NC(=O)c4ccc(O)c(CC=C(C)C)c4)c(=O)oc3c2C)OC1(C)C
output: 76.7

input: Please give the measured viability, T/C for this molecule: COc1cc2cc(C(=O)CCC(=O)O)sc2cc1OC + COC1C(OC(N)=O)C(O)C(Oc2ccc3c(O)c(NC(=O)c4ccc(O)c(CC=C(C)C)c4)c(=O)oc3c2C)OC1(C)C
output: 102

input: Please give the measured viability, T/C for this molecule: CCc1cc2c(N3CCc4c(cc(Cn5ccnc5)cc4-c4cn(C)nc4C(F)(F)F)C3=O)ccnc2c(OC)n1 + Nc1ccc(C#CCN(C(=O)Cc2ncc(C(F)(F)F)cc2C(F)(F)F)c2ccc(F)cc2)nn1
output: 97.6

input: Please give the measured viability, T/C for this molecule: C#Cc1c(F)ccc2cc(O)cc(-c3ncc4c(N5CC6CCC(C5)N6)nc(OCC56CCCN5CC(F)C6)nc4c3F)c12 (stereo unspecified) + COC1C(OC(N)=O)C(O)C(Oc2ccc3c(O)c(NC(=O)c4ccc(O)c(CC=C(C)C)c4)c(=O)oc3c2C)OC1(C)C
output: 99.7

input: Please give the measured viability, T/C for this molecule: C=CCn1c(=O)c2cnc(Nc3ccc(N4CCN(C)CC4)cc3)nc2n1-c1cccc(C(C)(C)O)n1 + Cc1cccc(N(C)C(=O)C2C(O)CCN2c2nc(C)cc(C(F)(F)F)c2C#N)c1
output: 102

* * *

- Tested on: 994946-033-R-J1-PDC complex spheroid viability
- METHOD: Anticancer human tumor 994946-033-R-J1-PDC cell line growth inhibition [POLQ];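 further: spheroids exposed to drugs for 7 days; 100% = DMSO vehicle treated spheroids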
- PROTOCOL_CONDITIONS: second compound 10 µM; first compound 0.316 µM; active compounds read low
yes if viability, T/C is below 60%. no if not; exact matches included in no.

These recorded examples may help you get a feel for the data.
>  <MOLECULE>
CCc1cc2c(N3CCc4c(cc(Cn5ccnc5)cc4-c4cn(C)nc4C(F)(F)F)C3=O)cc(C)nc2c(OC)n1 + Nc1ccc(C#CCN(C(=O)Cc2ncc(C(F)(F)F)cc2C(F)(F)F)c2ccc(F)cc2)nn1

>  <QUALITATIVE_LABEL>
no

$$$$
>  <MOLECULE>
CNCc1ccc(-c2[nH]c3cc(F)cc4c3c2CCNC4=O)cc1 + Cc1cccc(N(C)C(=O)C2C(O)CCN2c2nc(C)cc(C(F)(F)F)c2C#N)c1

>  <QUALITATIVE_LABEL>
no

$$$$
>  <MOLECULE>
CCc1c2c(nc3ccc(O)cc13)-c1cc3c(c(=O)n1C2)COC(=O)[C@]3(O)CC + Cc1cccc(N(C)C(=O)C2C(O)CCN2c2nc(C)cc(C(F)(F)F)c2C#N)c1

>  <QUALITATIVE_LABEL>
yes

$$$$
>  <MOLECULE>
CC(C)n1c(=O)n(C)c2cnc3cc(F)c(-c4ccc(OCCCN5CCCCC5)nc4)cc3c21 + COC1C(OC(N)=O)C(O)C(Oc2ccc3c(O)c(NC(=O)c4ccc(O)c(CC=C(C)C)c4)c(=O)oc3c2C)OC1(C)C

>  <QUALITATIVE_LABEL>
no

$$$$
>  <MOLECULE>
COc1ccc([C@@H](O)c2cc(-c3ncnc4cc(N5CCOCC5)ccc34)c(F)cc2Cl)nn1 + Nc1ccc(C#CCN(C(=O)Cc2ncc(C(F)(F)F)cc2C(F)(F)F)c2ccc(F)cc2)nn1

>  <QUALITATIVE_LABEL>
no

$$$$
>  <MOLECULE>
COc1cccc2c1C(=O)c1c(O)c3c(c(O)c1C2=O)CC(O)(C(=O)CO)CC3OC1CC(N)C(O)C(C)O1 (stereo unspecified) + Cc1cccc(N(C)C(=O)C2C(O)CCN2c2nc(C)cc(C(F)(F)F)c2C#N)c1

>  <QUALITATIVE_LABEL>
yes

$$$$
>  <MOLECULE>
COc1ccc([C@@H](O)c2cc(-c3ncnc4cc(N5CCOCC5)ccc34)c(F)cc2Cl)nn1 + COC1C(OC(N)=O)C(O)C(Oc2ccc3c(O)c(NC(=O)c4ccc(O)c(CC=C(C)C)c4)c(=O)oc3c2C)OC1(C)C

>  <QUALITATIVE_LABEL>
no

$$$$
>  <MOLECULE>
O=C(Nc1ccc(O)c(NS(=O)(=O)c2ccc(F)cc2)c1)c1ccc(-c2ccccc2)cc1 + Nc1ccc(C#CCN(C(=O)Cc2ncc(C(F)(F)F)cc2C(F)(F)F)c2ccc(F)cc2)nn1

>  <QUALITATIVE_LABEL>
no

$$$$

input: For this molecule, is viability, T/C lower than 60%? COc1cccc(OCCCN)c1-c1cc(Nc2cnc(C#N)cn2)n[nH]1 + Cc1cccc(N(C)C(=O)C2C(O)CCN2c2nc(C)cc(C(F)(F)F)c2C#N)c1
output: yes
